B1: Gamma-crystallin C, residues 91 to 170; numbered along this chain, P07315 (parent)
chain: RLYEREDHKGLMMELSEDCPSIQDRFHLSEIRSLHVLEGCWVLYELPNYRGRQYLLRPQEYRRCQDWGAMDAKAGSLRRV

Variants of: B1
method description: abundance fitness (aPCA) (normalised: wild type 0, dead -1); higher = more abundant; growth selection in yeast, the domain comes from the species named
condition notes: Homo sapiens
We use -0.4 as the dividing line for abundance fitness: on or above the line is 1 (yes), below is 0 (no).

| residue change | label |
| --- | --- |
| D18Y | 0 (no) |
| Y49Q | 0 (no) |
| E30C | 1 (yes) |
| I22D | 0 (no) |
| E30D | 0 (no) |
| D71I | 1 (yes) |
| K73E | 0 (no) |
| S29F | 1 (yes) |
| M70Y | 1 (yes) |
| G10S | 0 (no) |
| Y54A | 0 (no) |
| E60L | 1 (yes) |
| L37N | 1 (yes) |
| R52N | 1 (yes) |
| L43I | 1 (yes) |
| R25V | 1 (yes) |
| P20D | 1 (yes) |
| H35D | 1 (yes) |
| S16C | 1 (yes) |
| K9H | 1 (yes) |
| R25C | 1 (yes) |
| E17V | 1 (yes) |
| V36E | 0 (no) |
| E4G | 1 (yes) |
| L55W | 1 (yes) |
| R57Q | 1 (yes) |
| Y61G | 0 (no) |
| S29V | 1 (yes) |
| L43G | 0 (no) |
| L55M | 1 (yes) |
| L46Y | 1 (yes) |
| D18G | 0 (no) |
| M12Y | 1 (yes) |
| A69M | 0 (no) |
| L77D | 0 (no) |
| A69D | 0 (no) |
| N48D | 1 (yes) |
| D71Y | 1 (yes) |
| E17H | 0 (no) |
| I22M | 0 (no) |
| A69G | 1 (yes) |
| L56W | 0 (no) |
| S29T | 1 (yes) |
| G10R | 0 (no) |
| M12W | 1 (yes) |
| K73L | 1 (yes) |
| R50Y | 0 (no) |
| L34C | 1 (yes) |
| L77R | 0 (no) |
| D66M | 0 (no) |
| N48P | 0 (no) |
| R50W | 0 (no) |
| W67K | 0 (no) |
| M13I | 1 (yes) |
| Y3C | 0 (no) |
| R50F | 1 (yes) |
| C40Q | 1 (yes) |
| S33I | 0 (no) |
| Y44L | 0 (no) |
| R50A | 1 (yes) |
| Q23I | 1 (yes) |
| G39M | 0 (no) |
| K9R | 1 (yes) |
| K73Q | 1 (yes) |
